Tested on: HCT-8 host cells (Hs18S)
Details: human, 41 h, 10 μM
Where a name gives a salt, the structure may show the parent alone.
A collection of molecules and their measured Hs18S ΔCT
Measurement Kind: Hs18S ΔCT

1) Nc1nc2c(c(=O)[nH]1)N=C(CNc1ccc(C(=O)N[C@@H](CCC(=O)O)C(=O)O)cc1)CN2 [DIHYDROFOLIC ACID]
-0.36
2) COc1cc(-c2coc3cc(O[C@@H]4O[C@H](CO)[C@@H](O)[C@H](O)[C@H]4O)c(OC)c(O)c3c2=O)cc(O)c1OC
-0.14
3) COC(=O)C[C@H]1C(C)(C)[C@@H](OC(C)=O)[C@@H]2CC3C4CC(=O)O[C@@H](c5ccoc5)[C@]4(C)CCC3[C@@]1(C)C2=O (some centres unmarked) [DIHYDROFISSINOLIDE]
0.08
4) Cc1cc(O)c(C=O)c2c1C(=O)Oc1c(C)c(O)c3c(c1O2)C(O)OC3=O (centres unmarked)
-0.18
5) CC(=O)O[C@H]1CC[C@@]2(C)C(=CC(=O)[C@H]3[C@@H]4CC[C@H]([C@H](C)CCCC(C)C)[C@@]4(C)CC[C@@H]32)C1 [7-OXOCHOLESTERYL ACETATE]
-0.20
6) CCOc1ccc(C(=O)c2ccc(O)c(O)c2O)cc1 [2,3,4-TRIHYDROXY-4'-ETHOXYBENZOPHENONE]
0.22
7) O=c1c(O)c(-c2ccc(O)cc2)oc2cc(O)cc(O)c12
0.54
8) c1coc(CNc2ncnc3[nH]cnc23)c1
0.54
9) COC(=O)C[C@H]1C(C)(C)[C@@H](O)[C@@H]2CC3=C4CC(O)O[C@@H](c5ccoc5)[C@]4(C)CCC3[C@@]1(C)C2=O (stereo partly drawn) [3,16-DIDEOXYMEXICANOLIDE-3beta-DIOL]
-0.18
10) COc1cc(C)c2c(c1C=O)Oc1c(c(C)c(O)c3c1C(O)OC3=O)OC2=O (centres unmarked)
0.08
11) OC[C@H]1O[C@@H](Oc2ccc(O)cc2)[C@H](O)[C@@H](O)[C@@H]1O
0.01
12) NC[C@@H]1O[C@H](O[C@H]2[C@@H](O)[C@H](O[C@@H]3[C@@H](O)[C@H](N)C[C@H](N)[C@H]3O[C@H]3O[C@H](CO)[C@@H](O)[C@H](O)[C@H]3N)O[C@@H]2CO)[C@H](N)[C@@H](O)[C@@H]1O [PAROMOMYCIN SULFATE]
0.08
13) CC1=CC(=O)c2c(O)cccc2C1=O
1.26
14) COC(=O)c1c(C)cc(O)cc1O [METHYL ORSELLINATE]
0.31

###

Test system: Cryptosporidium parvum
Assay: qRT-PCR assay of the growth of C. parvum in vitro in HCT-8 host cells (primary and secondary screening, EC50)
Format: cell-based
Details: primary screening at 10 uM
Outcome label depends on Inhibition (%) relative to 20%: at/above gives Satisfied, below gives Not satisfied.

1) Cl.NCCC[C@H](N)C(=O)O [ORNITHINE HYDROCHLORIDE]
Not satisfied
2) C[C@]12C=CC(=O)C=C1CC[C@@H]1[C@@H]2CC[C@]2(C)C(=O)CC[C@@H]12
Not satisfied
3) O=C(O)c1cc(O)c(=O)c2c(O)c(O)c(O)cc2c1
Not satisfied
4) CN[C@@H]1[C@@H](O[C@H]2O[C@H](CO)[C@@H](N)[C@H](O)[C@H]2O)O[C@H]2C[C@@H](N)[C@@H](O[C@H]3[C@H](O)[C@@H](O)[C@H](N)C[C@@H]3N)O[C@@H]2[C@@H]1O.O=S(=O)(O)O [APRAMYCIN SULFATE]
Satisfied
5) CC1=C(/C=C/C(C)=C/C=C/C(C)=C/C=C/C=C(C)/C=C/C=C(C)/C=C/C2=C(C)C(=O)CCC2(C)C)C(C)(C)CCC1=O [CANTHAXANTHIN, CANTHAXANTHIN (euglenanone)]
Satisfied
6) CC(=O)O[C@H]1C[C@@H](OC(C)=O)C(C)(C)[C@@H]2C[C@@H](OC(C)=O)[C@@]3(C)C4=CC(=O)O[C@@H](c5ccoc5)[C@]4(C)CC[C@@H]3[C@@]12C
Satisfied
7) CC1(C)CC2C1CC[C@]1(C)CCC3C(C(=O)O)CC(=O)O[C@@]32C1 (some centres unmarked)
Satisfied
8) C[C@@H](N)[C@@H](O)c1ccccc1
Not satisfied
9) CC(=O)Oc1ccc2c(C)cc(=O)oc2c1
Not satisfied
10) C=C[C@@](C)(O)CC[C@H]1C(=C)C[C@H](O)[C@H]2C(C)(C)CCC[C@]12C
Satisfied
11) O=c1cc(-c2cc(O)c(O)c(O)c2)oc2cc(O)cc(O)c12
Not satisfied
12) O=c1cc(-c2ccccc2O)oc2cc(O)ccc12 [7,2'-DIHYDROXYFLAVONE]
Not satisfied
13) NC[C@H]1O[C@H](O[C@H]2[C@H](O[C@@H]3O[C@H](CO)[C@@H](O)[C@H]3O)[C@@H](O)[C@H](N)C[C@@H]2N)[C@H](N)[C@@H](O)[C@@H]1O.O=S(=O)(O)O [RIBOSTAMYCIN SULFATE]
Not satisfied
14) COc1ccc2c(c1O)-c1c(OC)c(OC)cc3c1[C@H](C2)N(C)CC3 [S-ISOCORYDINE (+)]
Not satisfied
15) O=C(O)CC[N+](=O)[O-]
Satisfied
16) CC1(C)C2CC(=O)[C@]3(C)C(CC[C@@]4(C)[C@H](c5ccoc5)OC(=O)C5OC543)[C@@]2(C)[C@@H](O)C[C@H]1O (some centres unmarked)
Satisfied
17) C=C(C)[C@@H]1CC[C@]2(C)CC[C@]3(C)[C@H](CC[C@@H]4[C@@]5(C)CC[C@H](OC(C)=O)C(C)(C)[C@@H]5CC[C@]43C)[C@@H]12 [LUPEOL ACETATE]
Satisfied
18) CC(=O)O[C@@H]1CC2C(C)(CC[C@H](O)C2(C)C)C2CC[C@]3(C)C(=CC(=O)O[C@H]3c3ccoc3)C21C (stereo partly drawn) [3beta-HYDROXYDEOXODIHYDRODEOXYGEDUNIN]
Satisfied
19) COc1c(-c2ccccc2)oc2cc(O)cc(O)c2c1=O
Not satisfied
20) COC(=O)/C=C/c1cc(OC)c(OC)c(OC)c1 [METHYL TRIMETHOXYCINNAMATE]
Not satisfied
21) Cc1occc(=O)c1O
Satisfied
22) COc1ccc2c(=O)c(-c3ccc(O)cc3)coc2c1
Not satisfied
23) O=C(O)c1cc(O)c(=O)c2c(O)c(O)cc([C@H]3Oc4cc(O)cc(O)c4C[C@H]3O)c2c1 [EPITHEAFLAVIC ACID]
Not satisfied
24) O=C1CCC[C@@H]2[C@H]3C[C@@H](CN12)[C@@H]1CCCCN1C3.[O-][Cl+3]([O-])([O-])O [LUPANINE PERCHLORATE]
Not satisfied
25) COc1cc2cc3c4cc(OC)c(OC)cc4cc[n+]3c(C)c2cc1OC.[Cl-] [CORALYNE CHLORIDE]
Not satisfied
26) CC(=O)NCCc1ccc(O)c(-c2c(O)c(O)c3c(c2O)C(=O)c2c(cc(O)c(C(=O)O)c2C(=O)O)C3=O)c1
Satisfied
27) O=C(O[C@@H]1Cc2c(O)cc(O)cc2O[C@@H]1c1cc(O)c(O)c(O)c1)c1cc(O)c(O)c(O)c1 [EPIGALLOCATECHIN-3-MONOGALLATE]
Not satisfied
28) CC(=O)c1c(O)cc(O)cc1O
Not satisfied
29) C=CC[S+]([O-])C[C@H](N)C(=O)O (mixture of isomers) [L(+/-)-ALLIIN]
Satisfied

###

A collection of molecules and their measured Hs18S ΔCT
System: HCT-8 host cells (Hs18S)
Conditions: human, 41 h, 10 μM
Measurement Kind: Hs18S ΔCT

1. C=C(C)[C@H]1CC=C(C)CC1 [d-LIMONENE]
-0.21
2. CC(C)c1ccc2c(c1)CC[C@H]1[C@](C)(C(N)=O)CCC[C@]21C [DEHYDROABIETAMIDE]
-0.01
3. CC(=O)O[C@H]1CC[C@]2(C)[C@H]3CC=C4[C@@H]5CC(C)(C)CC[C@]5(C)CC[C@@]4(C)[C@]3(C)CC[C@H]2C1(C)C [beta-AMYRIN ACETATE]
0.01
4. COc1ccc2c(=O)c(OC)c(-c3ccccc3)oc2c1 [3,7-DIMETHOXYFLAVONE]
-0.21
5. CCOC(=O)CCCCCCCCCCCCC1C=CCC1 (centres unmarked) [CHAULMOOGRIC ACID, ETHYL ESTER]
-0.15
6. Cn1cnc2c1c(=O)[nH]c(=O)n2C [THEOBROMINE]
0.03
7. C[C@@H]1O[C@@H](O[C@H]2[C@H](Oc3cc(O)c4c(c3)O[C@H](c3ccc(O)cc3)CC4=O)O[C@H](CO)[C@@H](O)[C@@H]2O)[C@H](O)[C@H](O)[C@H]1O [NARINGIN]
0.16
8. COc1cc(O)ccc1C(C)=O [ISOPEONOL]
0.03

Values from paper PMC6736568
